Data origin: patent US12497460B2

Molecular target: T1, MSR1-mediated Dil-OxLDL uptake in HEK293.Myc.hMSR1 cells (Homo sapiens, UniProt P21757)
T1 construct: expressed in transfected cells; host or cells: HEK293 (lentiviral transduction, hygromycin selection)
T1 sequence (P21757 1-451): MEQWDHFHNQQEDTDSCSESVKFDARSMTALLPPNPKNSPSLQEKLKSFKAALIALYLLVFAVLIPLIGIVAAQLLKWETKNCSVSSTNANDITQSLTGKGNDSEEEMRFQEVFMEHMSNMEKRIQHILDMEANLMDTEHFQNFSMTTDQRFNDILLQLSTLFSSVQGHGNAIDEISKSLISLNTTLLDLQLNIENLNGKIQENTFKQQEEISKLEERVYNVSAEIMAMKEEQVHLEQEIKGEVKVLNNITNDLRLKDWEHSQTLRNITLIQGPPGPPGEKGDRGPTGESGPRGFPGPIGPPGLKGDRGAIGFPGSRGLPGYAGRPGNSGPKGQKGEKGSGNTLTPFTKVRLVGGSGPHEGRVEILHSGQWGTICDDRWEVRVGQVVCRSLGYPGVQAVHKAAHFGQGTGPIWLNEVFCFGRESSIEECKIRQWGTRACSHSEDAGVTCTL
Assay: Ligand uptake assay, Dil-OxLDL
Format: cell-based
Details: maximum inhibition, 10 μg/mL Dil-OxLDL
Catalogue of Dil-Oxidized LDL % Inhibition values
assay.readout: Dil-Oxidized LDL % Inhibition (%)

| molecule | assay.readout | units.label | readout.value |
| --- | --- | --- | --- |
| H1H21227N-N297Q: "modified versions of 21227N (H1H21227N-N297Q and H1H21227N-N297D)"; anti-MSR1 antibody "with a N297Q single point mutation" (antibody, V domains shown) VH: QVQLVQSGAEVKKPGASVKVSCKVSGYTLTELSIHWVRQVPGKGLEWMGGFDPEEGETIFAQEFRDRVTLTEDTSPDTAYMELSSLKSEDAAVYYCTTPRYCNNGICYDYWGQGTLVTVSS VL: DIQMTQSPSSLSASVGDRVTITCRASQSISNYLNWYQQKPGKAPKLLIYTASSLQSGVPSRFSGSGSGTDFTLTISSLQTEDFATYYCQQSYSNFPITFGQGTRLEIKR | Dil-Oxidized LDL % Inhibition | % | 94 |
| H1H21227N: "anti-MSR1 antibodies ... (21227N, 21231N, 21234N) were produced with the original human Fcγ portion"; "H1H" = human IgG1 Fc (antibody, V domains shown, human IgG1 Fc, "anti-MSR1 antibodies ; (21227N, 21231N, 21234N) were produced with the original human Fcγ portion"; "H1H" = human IgG1 Fc) VH: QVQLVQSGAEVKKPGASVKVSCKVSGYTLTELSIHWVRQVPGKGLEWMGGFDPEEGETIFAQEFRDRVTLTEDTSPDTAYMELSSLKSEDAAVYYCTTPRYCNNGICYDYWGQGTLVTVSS VL: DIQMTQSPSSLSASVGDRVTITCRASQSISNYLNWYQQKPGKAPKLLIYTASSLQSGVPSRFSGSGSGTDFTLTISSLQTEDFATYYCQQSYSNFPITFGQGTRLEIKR | Dil-Oxidized LDL % Inhibition | % | 89 |
| H1H21231N: "anti-MSR1 antibodies ... (21227N, 21231N, 21234N) were produced with the original human Fcγ portion"; "H1H" = human IgG1 Fc (antibody, V domains shown, human IgG1 Fc, "anti-MSR1 antibodies ; (21227N, 21231N, 21234N) were produced with the original human Fcγ portion"; "H1H" = human IgG1 Fc) VH: EVQLVESGGGLVQPGGSLRLSCAASGFTFSDHYMDWVRQAPGKGLEWVGRTRNKANSHTTEYTASVTGRFTISRDDSRNSLYLQMNSLKTEDTAVYYCVRAGIIGTLFDYWGQGTLVTVSS VL: DIQMTQFPSSLSASVGDRVTITCRASQSISSFLNWFQQKPGKAPKFLIYAASSLQSGVPSRFSGSGSGTDFTLTISSLQPEDFATYYCQQSYSSPPITFGQGTRLEIKR | Dil-Oxidized LDL % Inhibition | % | 78 |
